test system: MRSA 43484; assay: AAMP assay and checkerboard synergy; type: cell-based, Staphylococcus aureus; conditions: MRSA 43484
Readout Name: MIC of the antimicrobial in comb. with GarKS (µg/mL)
Answers are plain numbers, in µg/mL.

Compound	Obs Value
O=C(N[C@H](CO)[C@H](O)c1ccc([N+](=O)[O-])cc1)C(Cl)Cl	64
CC1(C)S[C@@H]2[C@H](NC(=O)Cc3ccccc3)C(=O)N2[C@H]1C(=O)O	16
CC1(C)S[C@@H]2[C@H](NC(=O)[C@H](N)c3ccccc3)C(=O)N2[C@H]1C(=O)O	16
CN(C)[C@@H]1C(O)=C(C(N)=O)C(=O)[C@@]2(O)C(O)=C3C(=O)c4c(O)cccc4[C@@](C)(O)[C@H]3C[C@@H]12	0.6
C/C=C(\NC(=O)c1csc(-c2csc(-c3ccc4c(n3)-c3csc(n3)[C@H]([C@@H](C)O)NC(=O)c3csc(n3)[C@H](C(C)C)NC(=O)c3csc(n3)/C(=C/C)NC(=O)[C@H]([C@@H](C)O)NC(=O)c3csc-4n3)n2)n1)C(=O)NC[C@@H](C)O [MP1, micrococcin P1]	0.16

Hi! Can you tell me MIC of the antimicrobial in comb. with GarKS for each of these compounds?
1. CC[C@H]1OC(=O)[C@H](C)[C@@H](O[C@H]2C[C@@](C)(OC)[C@@H](O)[C@H](C)O2)[C@H](C)[C@@H](O[C@@H]2O[C@H](C)C[C@H](N(C)C)[C@H]2O)[C@](C)(O)C[C@@H](C)C(=O)[C@H](C)[C@@H](O)[C@]1(C)O
2. [H]/N=C(/N)N[C@H]1[C@H](O)[C@@H](O)[C@H](O[C@@H]2O[C@@H](C)[C@](O)(C=O)[C@H]2O[C@@H]2O[C@@H](CO)[C@H](O)[C@@H](O)[C@@H]2NC)[C@@H](N/C(N)=N\[H])[C@@H]1O

A:
1. 32
2. 32

---

tested on: S. pseudintermedius MRSP 45; experiment: microbe, parasite or virus in culture; type: cell-based, Staphylococcus pseudintermedius; conditions: Staphylococcus pseudintermedius, MRSP45; MRSP 45; 24 h; Table 8; read-out: MIC, single component
Readout Name: MIC (µg/mL)
One number for each entry, in µg/mL.

Some molecules with known MIC results, for comparison:
Molecule	MIC / µg/mL
CC(=O)O[C@H]1C[C@@]2(C)[C@@H](C[C@@H](O)[C@H]3[C@@]4(C)CC[C@@H](O)[C@@H](C)[C@@H]4CC[C@@]32C)/C1=C(\CCC=C(C)C)C(=O)O [Fusidic acid]	1.25
O=C(N[C@H](CO)[C@H](O)c1ccc([N+](=O)[O-])cc1)C(Cl)Cl [Cam, Chloramphenicol]	62

Now examine the next entry.
Please fill in: MIC reported for CN(C)[C@@H]1C(O)=C(C(N)=O)C(=O)[C@@]2(O)C(O)=C3C(=O)c4c(O)cccc4[C@@](C)(O)[C@H]3C[C@@H]12 [Tet, Tetracycline] = 150

---

As an illustration, consider measured MIC for compounds on S. aureus LMG3307.
One number for each entry, in µg/mL.

// known answers, use as guide
Compound	MIC [µg/mL]
CN(C)[C@@H]1C(O)=C(C(N)=O)C(=O)[C@@]2(O)C(O)=C3C(=O)c4c(O)cccc4[C@@](C)(O)[C@H]3C[C@@H]12	0.6
NC[C@H]1O[C@H](O[C@H]2[C@H](O)[C@@H](O[C@H]3O[C@H](CO)[C@@H](O)[C@H](N)[C@H]3O)[C@H](N)C[C@@H]2N)[C@H](O)[C@@H](O)[C@@H]1O	64
C/C=C(\NC(=O)c1csc(-c2csc(-c3ccc4c(n3)-c3csc(n3)[C@H]([C@@H](C)O)NC(=O)c3csc(n3)[C@H](C(C)C)NC(=O)c3csc(n3)/C(=C/C)NC(=O)[C@H]([C@@H](C)O)NC(=O)c3csc-4n3)n2)n1)C(=O)NC[C@@H](C)O [MP1, micrococcin P1]	0.9
O=C(N[C@H](CO)[C@H](O)c1ccc([N+](=O)[O-])cc1)C(Cl)Cl	8

// next item, MIC requested
Recorded MIC for [H]/N=C(/N)N[C@H]1[C@H](O)[C@@H](O)[C@H](O[C@@H]2O[C@@H](C)[C@](O)(C=O)[C@H]2O[C@@H]2O[C@@H](CO)[C@H](O)[C@@H](O)[C@@H]2NC)[C@@H](N/C(N)=N\[H])[C@@H]1O on S. aureus LMG3307 was 62

Numbers sourced from patent US20240041976A1.
